Record form. Attribute: GLUCOSE. Fill in for each entry.
Species on record: Rattus norvegicus
TEST_SUMMARY: DrugMatrix - Regimen: Daily Repeat
Assay type: toxicity, organism-based, Sprague-Dawley
Design: regimen Daily Repeat, gender Male, age 6-8 weeks
CONDITION_DETAILS: in vivo, po, 0 mg/kg, 120 h, tissue Plasma, route oral GAVAGE, dose level Control, time 5 day, vehicle .5 % CMC
Field format: number, assumed mg/dL, no unit text.

Could you tell me which GLUCOSE is on file for CCN1CCCC1CNC(=O)c1cc(S(N)(=O)=O)ccc1OC (centres undefined) [SULPIRIDE] ?
141.83

Could you tell me which GLUCOSE is on file for CCN1CCN(c2cc3c(cc2F)c(=O)c(C(=O)O)cn3C2CC2)CC1 [ENROFLOXACIN] ?
171.33

Could you tell me which GLUCOSE is on file for Nc1ccc(C(=O)O)c(O)c1 [AMINOSALICYLIC ACID] ?
163.33

Could you tell me which GLUCOSE is on file for CC(=O)Nc1ccc2c(c1)Cc1ccccc1-2 [2-ACETYLAMINOFLUORENE] ?
150.5

Could you tell me which GLUCOSE is on file for COc1ccc(Cl)cc1C(=O)NCCc1ccc(S(=O)(=O)NC(=O)NC2CCCCC2)cc1 [GLYBURIDE] ?
163.33

Could you tell me which GLUCOSE is on file for CC(C)(C#N)c1cc(Cn2cncn2)cc(C(C)(C)C#N)c1 [ANASTROZOLE] ?
165.67

Could you tell me which GLUCOSE is on file for O=C(O)CCc1nc(-c2ccccc2)c(-c2ccccc2)o1 [OXAPROZIN] ?
141.83

Could you tell me which GLUCOSE is on file for CN(C)CCC=C1c2ccccc2COc2ccccc21 [DOXEPIN] ?
167.67

Could you tell me which GLUCOSE is on file for CCOc1cc(N)c(Cl)cc1C(=O)NCC1CN(Cc2ccc(F)cc2)CCO1 (centres undefined) [MOSAPRIDE] ?
150.5

* * *

Organism: Rattus norvegicus
TEST_SUMMARY: DrugMatrix - Regimen: Daily Repeat
Format: toxicity, organism-based, Sprague-Dawley
Set-up: regimen Daily Repeat, gender Male, age 6-8 weeks
CONDITION_DETAILS: in vivo, po, 0 mg/kg, 72 h, tissue Blood, route oral GAVAGE, dose level Control, time 3 day, […]
REPORTED_METRIC: ABSOLUTE MONOCYTE (CELLS/uL)
Field format: number, assumed CELLS/uL, no unit text.

Could you tell me which ABSOLUTE MONOCYTE is on file for `CCOC(=O)C1=C(C)NC(C)=C(C(=O)OCC)C1c1ccccc1/C=C/C(=O)OC(C)(C)C` ?
50

Could you tell me which ABSOLUTE MONOCYTE is on file for `CS(=O)(=O)c1ccc(C2=C(c3ccccc3)C(=O)OC2)cc1` ?
40.67

Could you tell me which ABSOLUTE MONOCYTE is on file for Cc1cccc(C)c1NC(=O)C(C)N (stereo unspecified) [TOCAINIDE] ?
240

Could you tell me which ABSOLUTE MONOCYTE is on file for `CC(C)(c1ccc(O)cc1)c1ccc(O)cc1` ?
80.17

Could you tell me which ABSOLUTE MONOCYTE is on file for `Oc1ncnc2[nH]ncc12` ?
164

Could you tell me which ABSOLUTE MONOCYTE is on file for `CC#C[C@]1(O)CC[C@H]2[C@@H]3CCC4=CC(=O)CCC4=C3[C@@H](c3ccc(N(C)C)cc3)C[C@@]21C` ?
22.5

Could you tell me which ABSOLUTE MONOCYTE is on file for `c1ccc2c(c1)Nc1ccccc1S2` ?
40.67

Could you tell me which ABSOLUTE MONOCYTE is on file for O=C(Nc1ccc(Cl)c(Cl)c1)c1cc(Cl)cc(Cl)c1O [3,3',4',5-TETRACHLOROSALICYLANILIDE] ?
172.17

Could you tell me which ABSOLUTE MONOCYTE is on file for `COC(=O)Nc1nc2ccc(C(=O)c3ccccc3)cc2[nH]1` ?
102

Could you tell me which ABSOLUTE MONOCYTE is on file for `O=C(O)COC(=O)Cc1ccccc1Nc1c(Cl)cccc1Cl` ?
102

Could you tell me which ABSOLUTE MONOCYTE is on file for `CO[C@H]1O[C@@H]2O[C@@]3(C)CC[C@H]4[C@H](C)CC[C@@H]([C@H]1C)[C@@]24OO3` ?
391
